target: TBC1D23 C-terminal domain (Mus musculus, UniProt Q8K0F1); construct: TBC1D23 C-terminal domains were gel-filtered into buffer; GST (N, cleaved yes); made in house; host or cells: E. coli BL21 pLysS; test: ITC of cargo and mutant syntaxin-16 peptides binding to wild-type TBC1D23 C-terminal domain; details: peptide (0.8-5 mM) titrated into 100 μM domain, 100 mM NaCl, 100 mM tris pH 7.4, 1 mM TCEP, 20°C, mean of three independent runs
Sequence (Q8K0F1 559-684 limits assumed): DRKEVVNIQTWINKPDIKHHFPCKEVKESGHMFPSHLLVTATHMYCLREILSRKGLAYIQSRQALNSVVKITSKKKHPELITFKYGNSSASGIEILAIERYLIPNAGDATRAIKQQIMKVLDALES
Residues, ends and D or L forms follow the SMILES beside them.
quantity name: KD (μM)

1) CC(C)C[C@H](NC(=O)[C@H](C)NC(=O)[C@H](CC(N)=O)NC(=O)[C@H](CC(=O)O)NC(=O)[C@@H](N)CC(=O)O)C(=O)N[C@@H](Cc1ccc(O)cc1)C(=O)N[C@@H](Cc1c[nH]cn1)C(=O)N[C@@H](CCCNC(=N)N)C(=O)NCC(=O)N[C@@H](Cc1ccccc1)C(=O)N[C@H](C(=O)N[C@@H](CCC(=O)O)C(=O)N[C@@H](CC(=O)O)C(=O)O)[C@@H](C)O [STX16_TtoA] (H-DDNALYHRGFTED-OH; N-terminus and C-terminus assumed)	No binding
2) C[C@@H](O)[C@H](NC(=O)[C@H](Cc1ccccc1)NC(=O)CNC(=O)[C@H](CCCNC(=N)N)NC(=O)[C@H](Cc1c[nH]cn1)NC(=O)[C@H](Cc1ccc(O)cc1)NC(=O)[C@H](CO)NC(=O)[C@@H](NC(=O)[C@H](CC(N)=O)NC(=O)[C@H](CC(=O)O)NC(=O)[C@@H](N)CC(=O)O)[C@@H](C)O)C(=O)N[C@@H](CCC(=O)O)C(=O)N[C@@H](CC(=O)O)C(=O)O [STX16_LtoS] (H-DDNTSYHRGFTED-OH; N-terminus and C-terminus assumed)	No binding

These data points were gathered from paper PMC11093223.
